Tested on: K-562 leukemia
Assay: NCI tumour cell line growth inhibition, 48 h
measurement.kind: TGI

Completed entries (count: 2):
Cc1[nH]nc2c1C(=O)C=C(N(CCO)c1ccccc1)C2=O: > 100 µM
Cc1cc(N(CCC#N)CCC#N)ccc1N=Nc1cccc(Cl)c1: > 100 µM

Would you kindly look at the next entry?
API: value(readout=TGI, system=K-562 leukemia) for record `COc1cc2c([C@@H](OC(=O)c3ccccc3)c3ccc4c(c3)OCO4)nccc2c(OC)c1OC`
> 100 µM

---

System: PC-3 prostate
Test: NCI tumour cell line growth inhibition, 48 h
measurement.kind: TGI

Use these answered entries as a reference point.
CC(=O)C(=[N+]=[N-])C(=O)OCCOC(=O)C(=[N+]=[N-])C(C)=O: > 1 µM
O=C(O)C(O)C(O)C(O)C(=O)CO (stereo not drawn): > 100 µM

Let us examine a further case.
Lab note: need TGI with PC-3 prostate for entry `O=S(=O)(O)c1cc(N=Nc2cc(S(=O)(=O)O)c3cccnc3c2O)ccc1/C=C/c1ccc(N=Nc2cc(S(=O)(=O)O)c3cccnc3c2O)cc1S(=O)(=O)O` , please look it up.
> 100 µM

---

System: HL-60(TB) leukemia
Experiment: NCI tumour cell line growth inhibition, 48 h; in the data active = GI50 below about 0.43 µM; inactive = the rest
Could you please pick one outcome from this set? 1.0 = active, 0.0 = inactive

Below are worked cases with known answers.
COc1ccc(CC(NC(=O)[C@H](C)NC(=O)CN2CCOCC2)C(=O)N[C@@H](Cc2ccccc2)C(=O)[C@@]2(C)CO2)cc1 (stereo not given in full): 1.0
O=C(Nc1cccc(O)c1)c1cccc(NC2=C(Cl)C(=O)N(Cc3ccccc3)C2=O)c1: 0.0
C#Cc1cccc(Oc2ccc(NC(=O)CCl)cc2)c1: 0.0
CC(=O)c1cc2c(c3ccsc13)-c1ccccc1CC2: 0.0

Can you look up the reported call for `COc1cc2cc(Oc3ccc(NC(=O)Nc4ccc(Cl)c(C(F)(F)F)c4)cc3)c(C)nc2cc1OC` for me?
0.0

---

Exercise: state measured TGI for each of the molecules provided.
System: HCC-2998 colon
Assay: NCI tumour cell line growth inhibition, 48 h
Answers are plain numbers, in µM.

// solved cases for TGI follow
COC1C(O)C(C)OC(OC2CC3CCC4C(CCC5(C)C(C6=CC(=O)OC6)CCC45O)C3(O)C(OC(C)=O)C2)C1O (stereo not given): 13
CCCCCCCCCCCCCC(=O)C(C)N (stereo not given): 8.2

# per-item lookup of TGI; items listed below
1. CN(C)CCc1ccnc2nc(-c3ccc4ccccc4c3)cn12
2. Cc1cc(=O)oc2c3c(ccc12)OC(c1ccc(Br)cc1)CC3=O (stereo not given)

1. 37.2
2. 59.2

---

System: SK-MEL-5 melanoma
Test: NCI tumour cell line growth inhibition, 48 h
Would you mind telling me the reported TGI of each entry?

Reference set, count: 2
CCC1(N=[N+]=[N-])C(=O)c2ccccc2N(c2ccccc2)C1=O (stereo not drawn): > 100 µM
CCNc1nc2c(ncn2C2CC(O)C(COP(=O)(O)O)O2)c(=O)[nH]1 (stereo not drawn): > 100 µM

Turning now to a further compound:
// TGI lookup, key: `Nc1nc(NCC2(CO)CCC2)cc(=O)[nH]1`
> 100 µM

---

System: COLO 205 colon
Assay: NCI tumour cell line growth inhibition, 48 h; in the data active = GI50 below about 0.43 µM; inactive = the rest
Respond using exactly one of the listed classes: True = active, False = inactive

Could you please tell me the result logged for `COc1cc(NCc2ccccc2O)c2ncccc2c1` in this assay?
False

---

Kindly state TGI for each of the entries shown.
System: A498 renal
Assay: NCI tumour cell line growth inhibition, 48 h
Give bare numbers, in µM.

COc1ccc(/C=C(/C)[N+](=O)[O-])cc1: 8.28

State the recorded TGI for every item in the following list.
1. C[S+](C)CC(=O)c1ccc2c(c1)Sc1ccccc1O2
2. CCN(CC)CCOc1ccc2c(c1)C(=O)c1cc(OCCN(CC)CC)ccc1-2
3. CC1(C)CCC[C@]2(C)[C@@H]1CC[C@@]13O[C@@H]1C1=C(CO)C(=O)OC1=C[C@@H]23
4. CCCCCOC(=O)c1cc2cc(CCl)ccc2oc1=O

26.9
37.5
76.8
5.39

Respectfully, I request TGI for each entry included below.
1. O=C1c2ccn(CCCCN3CCCCC3)c2C(=O)c2c1c(O)c1ccccc1c2O
2. CCOC(=O)c1[nH]c(CN(C)Cc2[nH]c(C(=O)OCC)c(C)c2C(=O)OCc2ccccc2)c(C(=O)OCc2ccccc2)c1C
3. CCCCCCC#CC#Cc1cccc(=O)o1
4. O=C(NNS(=O)(=O)c1ccc(F)cc1)c1cccnc1Nc1ccc(Cl)cc1Cl

1. 35.1
2. 34.9
3. 29.1
4. 36.5

---

Tested on: HOP-62 NSCLC
Assay: NCI tumour cell line growth inhibition, 48 h
I'd be grateful if you could share measured TGI for these entries.

Consider the reported TGI for these compounds:
CC(C)(Oc1ccc2c(=O)cc(-c3ccccc3)oc2c1)C(=O)Nc1c(Cl)cccc1Cl: > 100 µM
CCCCCCNc1nc(N2CCOCC2)c2[nH]c(NCCCCCC)nc2n1: 3.27 µM
C[C@]12C3CC[C@@]4(CO)C[C@]3(CCC1[C@](C)(C(=O)O)CC[C@@H]2O)CC4=O (some centres undefined): > 100 µM
COc1cc2c([C@@H](OC(=O)c3ccccc3)c3ccc4c(c3)OCO4)nccc2c(OC)c1OC: > 100 µM
CCCCCCC#CC#Cc1cccc(=O)o1: 8.48 µM
NC(=S)N/N=C\c1nccc2c(N)cccc12: > 22 µM
N#CC(C(=N/NC(N)=S)/C(=N/NC(N)=S)C(C#N)c1ccc(Cl)cc1)c1ccc(Cl)cc1 (centres undefined): > 100 µM
c1cc(-c2cn[nH]c2)cc(-c2cn[nH]c2)c1: > 100 µM

From here, focus on the item given below.
TGI lookup needed for `CCOP(=O)(OCC)[C@]12C[C@@H](C)C=C[C@H]1COC2=O` , thanks.
> 100 µM

---

Test system: HS 578T breast
Assay: NCI tumour cell line growth inhibition, 48 h
Kindly state GI50 for each of the entries shown.

Known results for compounds:
CCCCCCC#CC#Cc1cccc(=O)o1: 1990 nM
O=C(Nc1cccc(O)c1)c1cccc(NC2=C(Cl)C(=O)N(Cc3ccccc3)C2=O)c1: 12700 nM

Entry `O=S(=O)(NCCNc1cc(-c2cn(-c3ccccc3)nc2-c2cccc(O)c2)ccn1)c1ccc(Cl)cc1` : reported GI50 = ?
3000 nM

---

Kindly state TGI for each of the entries shown.
Tested on: T-47D breast
Test: NCI tumour cell line growth inhibition, 48 h

O=S(=O)(O)/C(=C\c1ccccc1)c1ccccc1 (tested in a mixture with another compound): > 100 µM

Quick one: give me TGI for each item below, same order please.
1. Cn1c2ccccc2n2c3ccccc3c(=O)c(C#N)c12
2. Cc1ccc(CC(Cc2ccc(C)cc2C(=O)O)C(=O)O)cc1 (stereo unspecified)
3. O=C1/C(=C\c2ccc(F)cc2)CCOc2c1ccc1ccccc21
4. Nc1ccc2ccc(NS(=O)(=O)N3CCCCC3)cc2c1
5. O=C1CCCCC(=O)Nc2ccccc2N1

> 95.6 µM
> 100 µM
> 100 µM
> 75.3 µM
> 100 µM

---

Please provide measured TGI for the entries that follow.
Tested on: HT29 colon
Test: NCI tumour cell line growth inhibition, 48 h

Record excerpt, results attached:
O[C@H]1[C@H]2[C@H](O)C[C@H](CCOCc3ccccc3)CN2C[C@H]1O: > 100 µM
CC(C)(C)[Si](C)(C)OCC1C=CC(n2cnc3c(N)ncnc32)O1 (stereo unspecified): > 100 µM
COc1ccc(NS(=O)c2ccccc2OC)cc1 (stereo unspecified): > 100 µM
Cc1nc2ncn3c(c-2c1Cc1ccccc1)NC=C(O)N3: > 100 µM
C=CCC(N[C@H](CO)c1ccccc1)c1cn(S(=O)(=O)c2ccc(C)cc2)c2ccccc12 (stereo partly specified): > 100 µM

Please state TGI for every compound in the list that follows.
1. COC1C(O)C(C)OC(OC2CC3CCC4C(CCC5(C)C(C6=CC(=O)OC6)CCC45O)C3(O)C(OC(C)=O)C2)C1O (stereo unspecified)
2. COC(CN(C=O)[C@@H](c1ccc(Cl)cc1)c1cc2ccccc2o1)OC
3. O=[N+]([O-])C(=C(Nc1ccccc1)Nc1ccccc1)/C(Cl)=C(\Cl)Br
4. c1cc[c]([Sn]([S]c2cccc3cccnc23)([S]c2cccc3cccnc23)[c]2ccccc2)cc1
5. COc1ccc(N2C(=O)[C@@H]3[C@H](C2=O)c2[nH]c4ccccc4c2C2CCC(C(C)(C)C)C[C@@H]23)cc1 (stereo partly specified)

1: 12.7 µM; 2: 36.3 µM; 3: 29.7 µM; 4: 0.565 µM; 5: > 100 µM

State the recorded TGI for every item in the following list.
1. Cc1cc(=O)[nH]c(/N=C(\N)Nc2ccc(Cl)cc2)n1
2. CC(O)(CNS(=O)(=O)c1ccccc1)c1ccccc1 (stereo unspecified)

1: > 100 µM; 2: > 100 µM

Please go through the list and note TGI for each compound.
1. O=C(O)C1(Cc2ccc3c(c2)CCC3)Cc2ccccc2C1=O (stereo unspecified)
2. COc1cc(C2=NN(c3ccc(S(N)(=O)=O)cc3)C(c3ccc(Cl)cc3)C2)cc(OC)c1OC (stereo unspecified)
3. CC1CCP(=O)(c2ccccc2)CC1 (stereo unspecified)
4. COC(=O)C[C@H](COCc1ccccc1)NC(=O)C[C@H](COCc1ccccc1)NC(=O)OC(C)(C)C
5. COC(=O)C1N=CSCC1(C)O (stereo unspecified)

["> 100 µM", "> 100 µM", "> 100 µM", "> 100 µM", "> 100 µM"]

From: PubChem BioAssay (NCI)
